- target: UniProtKB P22687
- Sequence (P22687 whole entry): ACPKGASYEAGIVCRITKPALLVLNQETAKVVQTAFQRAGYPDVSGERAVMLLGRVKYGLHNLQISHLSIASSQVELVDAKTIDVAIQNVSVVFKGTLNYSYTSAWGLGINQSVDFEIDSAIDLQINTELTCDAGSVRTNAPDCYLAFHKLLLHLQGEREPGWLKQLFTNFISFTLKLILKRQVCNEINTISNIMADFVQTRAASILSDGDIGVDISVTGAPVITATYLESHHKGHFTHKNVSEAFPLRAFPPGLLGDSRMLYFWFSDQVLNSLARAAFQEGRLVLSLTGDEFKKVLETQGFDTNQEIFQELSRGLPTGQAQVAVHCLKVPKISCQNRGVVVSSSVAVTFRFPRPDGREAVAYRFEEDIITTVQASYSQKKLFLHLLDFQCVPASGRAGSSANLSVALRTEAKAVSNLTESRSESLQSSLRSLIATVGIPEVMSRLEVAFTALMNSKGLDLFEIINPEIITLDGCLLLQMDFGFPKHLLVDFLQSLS
Give measured IC50 for each item. Keep answers brief.
Only the number, expressed in µM, is required.

Identify the reported IC50 for the following entry. Cc1ccc(S(=O)(=O)N(c2ccc(OCc3cccc(C)c3)cc2)S(=O)(=O)c2ccc(C)cc2)cc1
3.4

Look up IC50 of Cc1ccc(S(=O)(=O)Oc2ccc(NCc3cccc(C)c3)cc2)cc1 and report it.
30.1

Please report IC50 for the following compound: Cc1ccc(S(=O)(=O)N(c2ccc(OCc3cccc(C(F)(F)F)c3)cc2)S(=O)(=O)c2ccc(C)cc2)cc1
11.1

----------
- target: UniProtKB P22687
- test description: Inhibition of Oryctolagus cuniculus (rabbit) CETP-mediated cholesteryl ester transfer at 10 uM after 1 hr by fluorescence assay
Rule: inhibition under 20% gives No, otherwise Yes.

Please tell me: is the compound Cc1ccc(S(=O)(=O)Nc2ccc(OCc3ccc([N+](=O)[O-])cc3)cc2)cc1 at or over 20% in terms of inhibition?
No

Does the compound Cc1ccc(S(=O)(=O)Oc2ccc(N(Cc3ccc(Br)cc3)Cc3ccc(Br)cc3)cc2)cc1 have recorded inhibition that is 20% or more?
No

Form field: inhibition at least 20%? Entry: Cc1ccc(S(=O)(=O)Nc2ccc(OCc3ccc(Cl)cc3)cc2)cc1
Yes

Determine whether this compound has inhibition no lower than 20%: Cc1ccc(S(=O)(=O)Oc2ccc(N(Cc3cccc(C(F)(F)F)c3)Cc3cccc(C(F)(F)F)c3)cc2)cc1
Yes

Reported inhibition reaches at least 20% for Cc1ccc(S(=O)(=O)Oc2ccc(N(Cc3ccc([N+](=O)[O-])cc3)Cc3ccc([N+](=O)[O-])cc3)cc2)cc1 ?
No

----------
What inhibition was measured for each of the following?
- target: Cholesteryl ester transfer protein (Oryctolagus cuniculus)
- test description: Inhibition of Oryctolagus cuniculus (rabbit) CETP-mediated cholesteryl ester transfer at 10 uM after 1 hr by fluorescence assay

Report inhibition, nothing else, for this molecule: COc1cccc(COc2ccc(N(S(=O)(=O)c3ccc(C)cc3)S(=O)(=O)c3ccc(C)cc3)cc2)c1
65.3%

Consider the molecule Cc1ccc(S(=O)(=O)N(c2ccc(OCc3cccc(Cl)c3)cc2)S(=O)(=O)c2ccc(C)cc2)cc1 and give its recorded inhibition.
42.6%

Please give measured inhibition of the following entry: Cc1ccc(S(=O)(=O)Oc2ccc(NCc3cccc([N+](=O)[O-])c3)cc2)cc1
29.9%

Find the measured inhibition of Cc1ccc(S(=O)(=O)Oc2ccc(N(Cc3cccc([N+](=O)[O-])c3)Cc3cccc([N+](=O)[O-])c3)cc2)cc1 and report it.
31.4%

Determine its reported inhibition: Cc1ccc(S(=O)(=O)N(c2ccc(OCc3cccc(C)c3)cc2)S(=O)(=O)c2ccc(C)cc2)cc1
66.9%

Find the measured inhibition of Cc1ccc(S(=O)(=O)Nc2ccc(OCc3cccc(Cl)c3)cc2)cc1 and report it.
29.6%

Please report inhibition for the following molecule: Cc1ccc(S(=O)(=O)Oc2ccc(NCc3cccc(C)c3)cc2)cc1
31.3%

Please look at this molecule and report its inhibition: Cc1ccc(S(=O)(=O)Oc2ccc(NCc3cccc(Br)c3)cc2)cc1
16.1%

Fill in inhibition for record Cc1ccc(CN(Cc2ccc(C)cc2)c2ccc(OS(=O)(=O)c3ccc(C)cc3)cc2)cc1
22.3%

Provide one value: measured inhibition of Cc1ccc(S(=O)(=O)N(c2ccc(OCc3ccc(Cl)cc3)cc2)S(=O)(=O)c2ccc(C)cc2)cc1
37.5%

Identify measured inhibition associated with Cc1ccc(COc2ccc(NS(=O)(=O)c3ccc(C)cc3)cc2)cc1
0%

Please supply the value of reported inhibition for the item Cc1ccc(S(=O)(=O)N(c2ccc(OCc3cccc(C(F)(F)F)c3)cc2)S(=O)(=O)c2ccc(C)cc2)cc1
39%
